A collection of compounds and their measured AC50
Assay System: Transforming acidic coiled-coil-containing protein 3 (Homo sapiens)
Assay Explanation: inhibition of ARNT PAS-B/TACC3 complex formation – biochemical, AlphaScreen, cherry-picked samples, confirmation (AID 651703);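 also: TACC3 partner is the GST-tagged E629A mutant dimer; hits lower the signal meaning they disrupt ARNT binding to TACC3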
Measurement Setup: AlphaScreen His-ARNT PAS-B / GST-TACC3 binding, luminescence

Some solved cases for reference:
Compound: CCN(C(=O)Cc1nc(N)n[nH]1)C1(C(=O)Nc2ccccc2)CCCCC1
AC50: 20 µM
//
Compound: Oc1ccc(Cn2ccnc2)c2cccnc12
AC50: < 0.5 µM
//
Compound: c1ccc(-c2nc(-c3ccncc3)n[nH]2)nc1
AC50: 2.79 µM

Write AC50 of `O=C(CCS(=O)(=O)c1ccc(F)cc1)Nc1nc(-c2ccccn2)cs1` ; system used: Transforming acidic coiled-coil-containing protein 3 (Homo sapiens)
6.22 µM

Write AC50 of `CCOC(=O)N1CCN(S(=O)(=O)c2ccc(C(=O)Nc3nnc(C4CC4)o3)cc2)CC1` ; system used: Transforming acidic coiled-coil-containing protein 3 (Homo sapiens)
13.4 µM

Write AC50 of `O=S(=O)(N[C@@H]1CC[C@@H](CCn2cc(-c3ccccn3)nn2)O[C@@H]1CO)c1cccc(Cl)c1` ; system used: Transforming acidic coiled-coil-containing protein 3 (Homo sapiens)
27.2 µM

Write AC50 of `Cc1ccc(C)c(CSc2ccc3nnc(-c4ccccn4)n3n2)c1` ; system used: Transforming acidic coiled-coil-containing protein 3 (Homo sapiens)
23.3 µM

Write AC50 of `CCOC(=O)c1cnc(Nc2nc3ccccc3o2)nc1CN1CCN(C)CC1` ; system used: Transforming acidic coiled-coil-containing protein 3 (Homo sapiens)
6.81 µM

---

Assay System: UniProtKB Q9Y6A5
Assay Explanation: inhibition of ARNT PAS-B/TACC3 complex formation – biochemical, AlphaScreen, cherry-picked samples, confirmation (AID 651703)
Measurement Setup: AlphaScreen His-ARNT PAS-B / GST-TACC3 binding, luminescence
Observable: AC50

Compound: O=C(COC(=O)c1ccccn1)c1cccc(Br)c1
AC50: 11.8 µM
//
Compound: COc1ccc(C)cc1NC(=O)CSc1ccc(-c2ccccn2)nn1
AC50: 3.11 µM

Please report AC50 for the following compound: `C/C(CC(=O)Nc1ccc(N(C)C)cc1)=N\NC(=O)c1ccccn1`
12.3 µM

Please report AC50 for the following compound: `NCCc1cnc[nH]1`
23.1 µM

Please report AC50 for the following compound: `COc1ccc(C(=O)Nc2nc(-c3ccccn3)cs2)cc1S(=O)(=O)N1CCOCC1`
3.13 µM

Please report AC50 for the following compound: `O=C(COc1ccccc1)Nc1nnc(-c2ccccc2)o1`
16.5 µM

Please report AC50 for the following compound: `Oc1ccc(Cl)cc1CNc1cccc2cccnc12`
54.8 µM

Please report AC50 for the following compound: `O=C(N[C@@H]1CC[C@@H](CCn2cc(-c3ccccn3)nn2)O[C@H]1CO)c1cccnc1`
11.8 µM

Please report AC50 for the following compound: `CC(=O)/C(=N\Nc1ccc(Cl)cc1Cl)Sc1cccc2cccnc12`
2.95 µM

Please report AC50 for the following compound: c1ccc(-c2nnc(-c3ccccn3)nc2N2CCC(c3ccccc3)C2)cc1 (stereo unspecified)
4.75 µM

Please report AC50 for the following compound: `COc1cc(OC)cc(C(=O)Oc2c(CN3CCOCC3)cc(Cl)c3cccnc23)c1`
31.1 µM

---

Assay System: Transforming acidic coiled-coil-containing protein 3 (Homo sapiens) (UniProt Q9Y6A5)
Assay Explanation: inhibition of ARNT PAS-B/TACC3 complex formation – biochemical, AlphaScreen, cherry-picked samples, confirmation (AID 651703)
Measurement Setup: AlphaScreen His-ARNT PAS-B / GST-TACC3 binding, luminescence
A collection of compounds and their measured AC50

Compound: Nc1ncnc(Oc2cccc3cccnc23)c1[N+](=O)[O-]
Assay System: Transforming acidic coiled-coil-containing protein 3 (Homo sapiens) (UniProt Q9Y6A5)
AC50: 11.1 µM

Compound: Cc1ccccc1C(=O)Nc1nnc(-c2ccco2)o1
Assay System: Transforming acidic coiled-coil-containing protein 3 (Homo sapiens) (UniProt Q9Y6A5)
AC50: 43.1 µM

Compound: CC1OC(CC(=O)O)CC2=C1C(=O)c1c(O)cccc1C2=O (stereo not given)
Assay System: Transforming acidic coiled-coil-containing protein 3 (Homo sapiens) (UniProt Q9Y6A5)
AC50: 46.9 µM

Compound: c1ccc(-c2nnc(-c3ccccn3)nc2N2CCN(c3ccncc3)CC2)cc1
Assay System: Transforming acidic coiled-coil-containing protein 3 (Homo sapiens) (UniProt Q9Y6A5)
AC50: < 0.5 µM

# ---- query compound ----
Please report AC50 for the following compound: `Cc1cccc(C)c1Nc1c(-c2ccccn2)nc2ccccn12`
8.6 µM

---

Assay System: Transforming acidic coiled-coil-containing protein 3 (Homo sapiens) (UniProt Q9Y6A5)
Assay Explanation: inhibition of ARNT PAS-B/TACC3 complex formation – biochemical, AlphaScreen, cherry-picked samples, confirmation (AID 651703);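 also: TACC3 partner is the GST-tagged E629A mutant dimer; hits lower the signal meaning they disrupt ARNT binding to TACC3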
Measurement Setup: AlphaScreen His-ARNT PAS-B / GST-TACC3 binding, luminescence
A collection of compounds and their measured AC50

Compound: COc1ccc(OC)c(NC(=O)CSc2ccc3nnc(-c4ccccn4)n3n2)c1
Result Value: 34.3 µM

Please report AC50 for the following compound: `CC(C)Nc1nc(NC(C)C)nc(C(=O)OCCO)n1`
41.8 µM

Please report AC50 for the following compound: `CN1CCN(C2CCN(Cc3ccc(O)c4ncccc34)CC2)CC1`
2.3 µM

Please report AC50 for the following compound: COc1ccc(C2CC(=O)Oc3c(C(CCN4CCCCC4)c4ccc(N(C)C)cc4)c(OC)cc(OC)c32)cc1 (stereo unspecified)
10.2 µM

Please report AC50 for the following compound: `Cc1ccc(C(=O)Nc2cccc(C(=O)N/N=C/c3ccc(O)cc3)c2)cc1`
32.7 µM

Please report AC50 for the following compound: `O=C(NCCCn1ccnc1)C(F)(F)C(F)(F)C(=O)NCCCn1ccnc1`
38.5 µM

---

A collection of molecules and their measured AC50
Assay System: Transforming acidic coiled-coil-containing protein 3 (Homo sapiens) (UniProt Q9Y6A5)
Assay Explanation: inhibition of ARNT PAS-B/TACC3 complex formation – biochemical, AlphaScreen, cherry-picked samples, confirmation (AID 651703);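 also: TACC3 partner is the GST-tagged E629A mutant dimer; hits lower the signal meaning they disrupt ARNT binding to TACC3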
Measurement Setup: AlphaScreen His-ARNT PAS-B / GST-TACC3 binding, luminescence

Some solved cases for reference:
Molecule: O=C(CC(NCc1ccccn1)C(=O)O)Nc1ccccc1Cl (configuration not stated)
Assay System: Transforming acidic coiled-coil-containing protein 3 (Homo sapiens) (UniProt Q9Y6A5)
AC50: 0.638 µM

Molecule: Oc1c(CN2CCOCC2)cc(COCc2ccccc2)c2cccnc12
Assay System: Transforming acidic coiled-coil-containing protein 3 (Homo sapiens) (UniProt Q9Y6A5)
AC50: 0.614 µM

Molecule: Cc1nc2ncccn2c1-c1csc(Nc2ccc(O)cc2)n1
Assay System: Transforming acidic coiled-coil-containing protein 3 (Homo sapiens) (UniProt Q9Y6A5)
AC50: 4.61 µM

Molecule: Oc1c(C(c2ccccn2)N2CCCCC2)cc(Cl)c2cccnc12 (configuration not stated)
Assay System: Transforming acidic coiled-coil-containing protein 3 (Homo sapiens) (UniProt Q9Y6A5)
AC50: 1.33 µM

Molecule: Oc1cccc2c(-c3nn[nH]n3)ccnc12
Assay System: Transforming acidic coiled-coil-containing protein 3 (Homo sapiens) (UniProt Q9Y6A5)
AC50: 2.14 µM

Molecule: c1ccc(-c2cnc(-c3ccccn3)nn2)cc1
Assay System: Transforming acidic coiled-coil-containing protein 3 (Homo sapiens) (UniProt Q9Y6A5)
AC50: 3.23 µM

Please report AC50 for the following molecule: Cc1ccc(C2(C)NC(=O)N(CC(=O)Nc3nc(-c4ccccn4)cs3)C2=O)cc1 (configuration not stated)
4.67 µM

Please report AC50 for the following molecule: `Cc1ccc(NC(=O)CSc2ccc(-c3ccccn3)nn2)cc1F`
3.98 µM

Please report AC50 for the following molecule: `COc1cc(CNCc2ccccn2)ccc1OCc1cccc(Cl)c1`
62.6 µM

Please report AC50 for the following molecule: `Nc1nc(CN2CCN(Cc3ccccc3)CC2)nc(Nc2ccc3c(c2)OCCO3)n1`
65.8 µM

Please report AC50 for the following molecule: `Cc1cccc(C(=O)Nc2nnc(C3=COCCO3)o2)c1`
12.6 µM

Please report AC50 for the following molecule: `O=C(Nc1nccs1)c1cnccn1`
63.9 µM

---

Assay System: Transforming acidic coiled-coil-containing protein 3 (Homo sapiens)
Assay Explanation: inhibition of ARNT PAS-B/TACC3 complex formation – biochemical, AlphaScreen, cherry-picked samples, confirmation (AID 651703);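 also: TACC3 partner is the GST-tagged E629A mutant dimer; hits lower the signal meaning they disrupt ARNT binding to TACC3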
Measurement Setup: AlphaScreen His-ARNT PAS-B / GST-TACC3 binding, luminescence
A collection of compounds and their measured AC50

Some solved cases for reference:
Compound: c1ccc(-c2nnc(-c3ccccn3)nc2NCc2ccccn2)cc1
AC50: < 0.5 µM
--
Compound: O=C(CN1CC(=O)Oc2ccccc21)OCC(=O)c1ccccc1
AC50: 1.1 µM
--
Compound: CN(Cc1ccccc1)CC(O)COc1ccc(CNCc2nccn2C)cc1 (centres undefined)
AC50: 47.9 µM
--
Compound: Fc1ccc(-c2ccc(CNCc3ccccn3)o2)cc1
AC50: 31.2 µM
--
Compound: O=C(NNc1ccccn1)C(=O)NNS(=O)(=O)c1ccc(F)cc1
AC50: 15.5 µM
--
Compound: CCOc1cc(CNCc2ccccn2)cc(Cl)c1OCC
AC50: 45 µM

Write AC50 of `O=C(N[C@@H]1CC[C@H](CCn2cc(-c3ccccn3)nn2)O[C@@H]1CO)c1ccncc1` ; system used: Transforming acidic coiled-coil-containing protein 3 (Homo sapiens)
8.23 µM

Write AC50 of `COCc1cc(CN2CCN(C)CC2)c(O)c2ncccc12` ; system used: Transforming acidic coiled-coil-containing protein 3 (Homo sapiens)
1.14 µM

Write AC50 of `COc1cccc(/C=N/n2c(-c3n[nH]c4c3CCC4)n[nH]c2=S)c1O` ; system used: Transforming acidic coiled-coil-containing protein 3 (Homo sapiens)
28.7 µM

Write AC50 of `O=C(CC(=O)N/N=C/c1ccccc1O)NCc1cccnc1` ; system used: Transforming acidic coiled-coil-containing protein 3 (Homo sapiens)
32.8 µM

Write AC50 of `O=C(CSc1ccc(-c2ccccn2)nn1)NC1CCCC1` ; system used: Transforming acidic coiled-coil-containing protein 3 (Homo sapiens)
2.64 µM
